List of inhibition at 1 µM values.
Biological target: GST-tagged ROR gamma ligand binding domain (LBD) (Homo sapiens, UniProt P51449)
Construct: purchased Invitrogen
Sequence (P51449 269-508 limits assumed): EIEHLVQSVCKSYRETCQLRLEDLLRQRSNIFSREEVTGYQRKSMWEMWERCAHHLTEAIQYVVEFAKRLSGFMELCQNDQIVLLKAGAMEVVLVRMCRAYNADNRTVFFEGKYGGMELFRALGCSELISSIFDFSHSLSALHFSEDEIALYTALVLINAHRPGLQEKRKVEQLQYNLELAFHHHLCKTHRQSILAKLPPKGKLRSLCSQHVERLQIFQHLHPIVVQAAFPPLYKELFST
Assay: TR-FRET assay for ROR gamma (LanthaScreen co-activator peptide recruitment)
Type: biochemical
Conditions: compound 1 μM; TR-FRET ratio 520/495, percent of control
observable: inhibition at 1 µM (%)

smiles_notation=CCS(=O)(=O)c1ccc(CC(=O)Nc2ccc(OC3(c4ccc(C(F)(F)F)c(F)c4)COC3)cc2)cc1 assay_value=60.3
smiles_notation=CCS(=O)(=O)c1ccc(CC(=O)Nc2ccc(OC3(c4ccc(Cl)c(F)c4)CCC3)cc2)cc1 assay_value=83.7
smiles_notation=CCS(=O)(=O)c1ccc(CC(=O)Nc2ccc(OC(C)(C)C(=O)N(C)c3ccc(Cl)cc3)cc2)cc1 assay_value=64.2
smiles_notation=CCn1c(C(C)(C)Oc2ccc(Cl)cc2F)nc2cc(NC(=O)Cc3ccc(S(=O)(=O)CC)cc3)ccc21 assay_value=92.8
smiles_notation=CCS(=O)(=O)c1ccc(CC(=O)Nc2ccc(OC(C)(C)c3ccc(Cl)cc3F)cc2)cc1 assay_value=77.5
smiles_notation=CCS(=O)(=O)c1ccc(CC(=O)Nc2ccc(OC(C)(C)c3ccc(Cl)cc3Cl)nc2)cc1 assay_value=83.7
smiles_notation=CCS(=O)(=O)c1ccc(CC(=O)Nc2ccc(OC(C)(C)c3nc4ccc(Cl)cc4n3C)cc2)cc1 assay_value=78.6
smiles_notation=CCS(=O)(=O)c1ccc(CC(=O)Nc2ccc(OC(C)(C)c3ccc(F)cc3Cl)cc2)cc1 assay_value=85
smiles_notation=CCS(=O)(=O)c1ccc(CC(=O)Nc2ccc(OC3(c4ccc(Cl)cc4Cl)CCCC3)c(F)c2)cc1 assay_value=80
smiles_notation=CCS(=O)(=O)c1ccc(CC(=O)Nc2ccc(OC3(c4ccc(F)cc4F)CCCCC3)c(F)c2)cc1 assay_value=69.1
smiles_notation=CCS(=O)(=O)c1ccc(CC(=O)Nc2ccc(OC3(c4ccc(Cl)cc4Cl)COC3)c(F)c2)cc1 assay_value=86.6
smiles_notation=CCS(=O)(=O)c1ccc(CC(=O)Nc2ccc(OC3(c4ccc(Cl)cc4Cl)CCCC3)cc2)cc1 assay_value=82
smiles_notation=CCS(=O)(=O)c1ccc(CC(=O)Nc2ccc3c(c2)nc(C(C)(C)Oc2ccc(F)c(F)c2)n3C)cc1 assay_value=82
smiles_notation=CCS(=O)(=O)c1ccc(CC(=O)Nc2ccc(OC3(c4nnc5ccc(Cl)cn45)CCC3)cc2)cc1 assay_value=69.7
smiles_notation=CCN(C(=O)C(C)(C)Oc1ccc(NC(=O)Cc2ccc(S(=O)(=O)CC)cc2)cc1F)c1ccc(Cl)c(F)c1 assay_value=69.8

The values you see were collected from patent US9718817B2.
